# Tested on: V. cholerae SAD30
# Construct: SAD30
# Parameters: species or system S. aureus MSSA476 (TSB) or V. cholerae SAD30 (LB); 384-well bacterial growth screen at 25 uM, OD600 relative to DMSO control
# Settings: relative growth, OD600, LB; 25 µM; inhibitor
Among all 3,200 compounds or so, about 110 (3.4%) showed an effect of 50% or more. Many of the other results were omitted from the sample, so strong results are more common in it than they were.

{"columns": ["Compound", "Measured on", "Output unit", "% of control remaining"],
 "data": [
  ["O=C(CCl)N(Cc1nc(C2CCCCCC2)no1)C1CC1", "V. cholerae SAD30", "%", 80.2247],
  ["COc1ccc([N+](=O)[O-])cc1NC(=O)CCl", "V. cholerae SAD30", "%", 111.969],
  ["CC(Cl)C(=O)Nc1sccc1C(N)=O (stereo not shown)", "V. cholerae SAD30", "%", 107.429],
  ["C=CC(=O)NCc1ccc2oc(=O)n(C)c2c1", "V. cholerae SAD30", "%", 88.6519],
  ["C#CCN1C(=O)C=CC1=O", "V. cholerae SAD30", "%", 15.1179],
  ["COc1ccc(C=C(C#N)C(=O)Nc2cccc(C)c2)cc1", "V. cholerae SAD30", "%", 85.4521],
  ["COc1cc([N+](=O)[O-])ccc1NC(=O)CCl", "V. cholerae SAD30", "%", 100.582],
  ["Cn1nc(C(F)(F)F)cc1CN(C(=O)CCl)C1CCCC1", "V. cholerae SAD30", "%", 89.1037],
  ["CC(NC(=O)C(C#N)=Cc1ccco1)c1cccc(-n2cccn2)c1 (stereo not shown)", "V. cholerae SAD30", "%", 81.5092],
  ["O=C(CCl)N1CCN(S(=O)(=O)c2cccc([N+](=O)[O-])c2)CC1", "V. cholerae SAD30", "%", 91.0934],
  ["Cc1cc(C(=O)C(C)Cl)c(C)n1Cc1ccco1 (stereo not shown)", "V. cholerae SAD30", "%", 94.9153],
  ["COc1ccc(C=C(C#N)C(=O)Nc2ccccc2)cc1", "V. cholerae SAD30", "%", 91.9782],
  ["CCC(NC(=O)CCl)c1ccc(C)cc1 (stereo not shown)", "V. cholerae SAD30", "%", 97.3043],
  ["COc1ccc(Cl)cc1CNC(=O)CCl", "V. cholerae SAD30", "%", 95.2507],
  ["C=CC(=O)NC(c1ccc(C)cc1)C(C)S(C)(=O)=O (stereo not shown)", "V. cholerae SAD30", "%", 94.3646],
  ["C=CC(=O)N(CC)Cc1nc2ccsc2c(=O)[nH]1", "V. cholerae SAD30", "%", 108.146],
  ["CC(Cl)C(=O)N1CCN(CCOc2ccc3c(c2)CCC3)CC1 (stereo not shown)", "V. cholerae SAD30", "%", 64.6128],
  ["C=CC(=O)NCC1CNC(=O)c2ccccc21 (stereo not shown)", "V. cholerae SAD30", "%", 90.0415],
  ["NS(=O)(=O)c1cccc(N2C(=O)C=CC2=O)c1", "V. cholerae SAD30", "%", 102.396],
  ["O=C(CCl)N1CC(S(=O)(=O)Nc2ccccc2)C1", "V. cholerae SAD30", "%", 71.283],
  ["CC(Cl)C(=O)N1CCc2ncccc2C1 (stereo not shown)", "V. cholerae SAD30", "%", 77.5814],
  ["COc1cc([N+](=O)[O-])ccc1NC(=O)C(C)Cl (stereo not shown)", "V. cholerae SAD30", "%", 93.5087],
  ["COc1ccc(Cl)cc1NC(=O)C(C)Cl (stereo not shown)", "V. cholerae SAD30", "%", 89.3355],
  ["C=CC(=O)NCCc1nc(-c2ccccc2)nn1C", "V. cholerae SAD30", "%", 85.4096],
  ["COc1ccc(N2C(=O)C=CC2=O)c(OC)c1", "V. cholerae SAD30", "%", 26.9628],
  ["C=CC(=O)N1CCOCC1c1noc(C)n1 (stereo not shown)", "V. cholerae SAD30", "%", 103.029],
  ["COc1ccc(C2CCCN2C(=O)CCl)c(OC)c1 (stereo not shown)", "V. cholerae SAD30", "%", 115.247],
  ["Cc1ccc(NC(=O)CCl)cc1[N+](=O)[O-]", "V. cholerae SAD30", "%", 93.6813],
  ["CC(Cl)C(=O)NCc1ccon1 (stereo not shown)", "V. cholerae SAD30", "%", 79.9604],
  ["CC(C)NC(=O)C(C#N)=Cc1cccs1", "V. cholerae SAD30", "%", 71.0401],
  ["Cl.O=C(CCl)c1ccncc1F", "V. cholerae SAD30", "%", 0],
  ["O=C1C=CC(=O)N1c1cccc(O)c1", "V. cholerae SAD30", "%", 26.4952],
  ["CC(Cl)C(=O)Nc1ccc2c(c1)CCC2 (stereo not shown)", "V. cholerae SAD30", "%", 86.9181],
  ["COc1cccc(NC(=O)C(C)Cl)c1 (stereo not shown) [6-I03, 2-chloro-N-(3-methoxyphenyl)propanamide]", "V. cholerae SAD30", "%", 100.863],
  ["COc1cccc(NC(=O)C(C#N)=Cc2ccc(O)cc2)c1", "V. cholerae SAD30", "%", 71.584],
  ["Cc1ccc(N2C(=O)C=CC2=O)c(C)c1", "V. cholerae SAD30", "%", 22.5989],
  ["O=C(CCl)Nc1cccc(S(=O)(=O)N=C2CCCCCN2)c1", "V. cholerae SAD30", "%", 107.656],
  ["CC(C)N(Cc1ccc(N(C)C)cc1)C(=O)CCl", "V. cholerae SAD30", "%", 100.2],
  ["O=C(CCl)c1ccoc1", "V. cholerae SAD30", "%", 123.281],
  ["N#CC(=Cc1cccc(O)c1)C(=O)Nc1ccc(N2CCOCC2)cc1", "V. cholerae SAD30", "%", 71.0401],
  ["O=C(CCl)c1c[nH]c2ccncc12", "V. cholerae SAD30", "%", 101.305],
  ["COc1cccc(N2C(=O)C=CC2=O)c1", "V. cholerae SAD30", "%", 23.8457],
  ["Cc1cc(C(=O)CCl)c(C)n1-c1cccc([N+](=O)[O-])c1", "V. cholerae SAD30", "%", 67.329],
  ["CC(=O)Nc1cccc(N2C(=O)C=CC2=O)c1", "V. cholerae SAD30", "%", 85.564],
  ["COc1ccc(Cl)cc1N1C(=O)C=CC1=O", "V. cholerae SAD30", "%", 24.1574],
  ["Cc1ccc(C)c(N2C(=O)C=CC2=O)c1", "V. cholerae SAD30", "%", 31.3267]
]}
